system: HSV-1; experiment: HSV Antiviral (ELISA) Assay in Vero cells; assay type: cell-based, herpes simplex virus type 1; conditions: Human alphaherpesvirus 1; HSV-1, Vero cells; read-out: IC50 (ug/ml) HSV
Quick list: IC50 per entry.
A number alone suffices; assume µg/mL.

Kindly note the recorded IC50 for CSc1ccc(NC(=S)Nc2ccc(NC(=O)c3ccccc3F)cc2)cc1Cl [Example 847] , which is 0.4

More entries:
Briefly, IC50 measured for CC(=O)c1cccc(NC(=S)Nc2ccc(NC(=O)c3ccccc3F)cc2)c1 [Example 965] : 5

The compound COc1c(Cl)cc(NC(=S)Nc2ccc(NC(=O)c3ccccc3F)cc2)cc1Cl [Example 874] showed IC50 equal to 5

# IC50 of COc1cc(C)c(Cl)cc1NC(=S)Nc1ccc(NC(=O)c2ccccc2C)cc1 [Example 850] = 0.09

----------
tested on: HCMV recombinant mutant virus (RV145); experiment: microbe, parasite or virus in culture; format: cell-based, human cytomegalovirus; settings: HCMV
VALUE_TYPE: IC50 ug/ml HCMV

// known answers, use as guide
Noted for CN(c1ccc(NC(=S)Nc2ccc(NC(=O)c3c(F)cccc3F)cc2)cc1Cl)C1CCCCC1 : its IC50 ug/ml HCMV reads 2 µg/mL

Lab book: IC50 ug/ml HCMV of CS(=O)(=O)c1ccc(NC(=S)Nc2ccc(NC(=O)c3c(F)cccc3F)cc2)cc1Cl [Example 393] noted as 0.5 µg/mL

Per the records, this compound ( CC(C)C(NC(=S)Nc1ccc(NC(=O)c2ccccc2F)cc1)c1ccc(F)cc1 (centres unmarked) ) has IC50 ug/ml HCMV equal to 1.5 µg/mL

New cases:
Form: compound = O=C(Nc1ccc(NC(=S)NCc2cc(C(F)(F)F)cc(C(F)(F)F)c2)cc1)c1ccccc1F ; IC50 ug/ml HCMV = 0.3 µg/mL

Reported IC50 ug/ml HCMV of CN(C)c1cccc(NC(=S)Nc2ccc(NC(=O)c3ccccc3F)cc2)c1 : 4 µg/mL

get_value(item= CC(NC(=S)Nc1ccc(NC(=O)c2ccccc2F)cc1)c1ccccc1 (centres unmarked) , readout=IC50 ug/ml HCMV) returns 7 µg/mL

Entry CS(=O)(=O)Nc1ccc(NC(=S)Nc2ccc(NC(=O)c3ccccc3F)cc2)cc1Cl , IC50 ug/ml HCMV reported as >10 µg/mL

get_value(item= O=C(Nc1ccc(NC(=S)Nc2cc(N3CCOCC3)cc(C(F)(F)F)c2)cc1)c1ccccc1F , readout=IC50 ug/ml HCMV) returns >0.5 µg/mL

----------
tested on: VZV strain Ellen; assay: VZV Antiviral (ELISA) Assay in human foreskin fibroblast cells; format: cell-based, varicella-zoster virus; conditions: Human alphaherpesvirus 3, Fibroblast, read-out: IC50 (ug/ml) VZV
Below, each entry is listed alongside its reported IC50.
# value in µg/mL; strip the unit string

// solved cases for IC50 follow
Reported IC50 for O=C(Nc1ccc(NC(=S)NCCc2ccc(F)cc2)cc1)c1ccccc1F [Example 553] was 7

GET /value?item= O=C(Nc1ccc(NC(=S)Nc2ccc(Cl)cc2O)cc1)c1ccccc1F [Example 1001] &field=IC50 returns 3.6

response.value for CC(NC(=S)Nc1ccc(NC(=O)c2ccc(C(F)(F)F)cc2)cc1)c1ccc(F)cc1 (stereo not shown) [Example 1021] (field: IC50) = 0.4

Please turn your attention to the following entry.
// IC50 lookup, molecule = COc1ccc(C(C)NC(=S)Nc2ccc(NC(=O)c3ccccc3F)cc2)cc1Cl (stereo not shown) [Example 1000] , result: 6

----------
test system: HCMV recombinant mutant virus (RV145); experiment: microbe, parasite or virus in culture; type: cell-based, human cytomegalovirus; conditions: HCMV
VALUE_TYPE: IC50 ug/ml HCMV (µg/mL)
# value in µg/mL; strip the unit string

Example compounds with recorded IC50 ug/ml HCMV:
Case CCSc1ccc(NC(=S)Nc2ccc(NC(=O)c3ccccc3F)cc2)cc1Cl , HCMV recombinant mutant virus (RV145), IC50 ug/ml HCMV recorded as 2

Response field IC50 ug/ml HCMV (HCMV recombinant mutant virus (RV145)) for item COc1cc(OC)c(NC(=S)Nc2ccc(NC(=O)c3cccc([N+](=O)[O-])c3)cc2)cc1Cl : 5

Note to self: IC50 ug/ml HCMV of CC(NC(=S)Nc1ccc(NC(=O)c2ccccc2F)cc1)c1cccc(Br)c1 (stereo not shown) with HCMV recombinant mutant virus (RV145) was 1

GET /values?item= CN(C)CCSCC(=O)Nc1ccc(NC(=S)Nc2ccc(NC(=O)c3ccccc3F)cc2)cc1Cl &system= HCMV recombinant mutant virus (RV145) returns IC50 ug/ml HCMV: 6

---
Item COc1ccccc1C(C)NC(=S)Nc1ccc(NC(=O)c2ccccc2F)cc1 (stereo not shown) ; assay system HCMV recombinant mutant virus (RV145); IC50 ug/ml HCMV reported as 1.8

Measured IC50 ug/ml HCMV for this entry O=C(Nc1ccc(NC(=S)NC(c2ccccc2)c2ccc(F)cc2)cc1)c1ccccc1F (stereo not shown) on HCMV recombinant mutant virus (RV145): 0.35

Tested on HCMV recombinant mutant virus (RV145), the item O=C(Nc1ccc(NC(=S)Nc2ccc(SC3CCCCC3)c(Cl)c2)cc1)c1ccccc1F showed IC50 ug/ml HCMV equal to 9

----------
Documented IC50 across a set of compounds
system: HSV-1; assay: HSV Antiviral (ELISA) Assay in Vero cells; assay type: cell-based, herpes simplex virus type 1; conditions: Human alphaherpesvirus 1; HSV-1, Vero cells; read-out: IC50 (ug/ml) HSV

The compound COc1ccc(NC(=S)Nc2ccc(NC(=O)c3ccccc3)cc2)cc1Cl , tested on HSV-1, showed IC50 of 1 µg/mL

Record for C[C@@H](NC(=S)Nc1ccc(NC(=O)c2ccccc2F)cc1)c1ccccc1 under target or system HSV-1: IC50 reported as > 10 µg/mL

----------
tested on: HSV-1; experiment: HSV Antiviral (ELISA) Assay in Vero cells; type: cell-based, herpes simplex virus type 1; details: Human alphaherpesvirus 1; HSV-1, Vero cells; read-out: IC50 (ug/ml) HSV
Each entry below carries its reported IC50.
Give the value, in units of µg/mL, as a plain number.

According to the records, this compound CN1CCC(N(C)c2ccc(NC(=S)Nc3ccc(NC(=O)c4ccccc4F)cc3)cc2Cl)CC1 [Example 855] displays IC50 of 2.5

Others:
IC50 for CN(C)c1ccc(NC(=S)Nc2ccc(NC(=O)c3ccccc3F)cc2)cc1Cl [Example 852] is 4

----------
IC50 ug/ml HCMV overview
tested on: HCMV recombinant mutant virus (RV145); assay: microbe, parasite or virus in culture; assay type: cell-based, human cytomegalovirus; settings: HCMV
Record the value in µg/mL, omitting the unit from your answer.

Reported IC50 ug/ml HCMV ( CN1CCC(N(C)c2ccc(NC(=S)Nc3ccc(NC(=O)c4ccccc4F)cc3)cc2Cl)C1 (centres unmarked) ) = 0.9

# compound CCCCC(NC(=S)Nc1ccc(NC(=O)c2ccccc2F)cc1)c1ccc(F)cc1 (centres unmarked) ; its IC50 ug/ml HCMV = 1.2

Next:
Noted for CC(NC(=S)Nc1ccc(NC(=O)c2ccccc2F)cc1)c1cc2ccccc2o1 (centres unmarked) : its IC50 ug/ml HCMV reads 2.1

IC50 ug/ml HCMV recorded for this compound, CN(C)c1c(Cl)cccc1NC(=S)Nc1ccc(NC(=O)c2c(F)cccc2F)cc1 , is 2

----------
test system: HCMV recombinant mutant virus (RV145); test: microbe, parasite or virus in culture; assay type: cell-based, human cytomegalovirus; settings: HCMV
VALUE_TYPE: IC50 ug/ml HCMV

Solved cases below.
Entry O=C(Nc1ccc(NC(=S)Nc2ccc(OC(F)(F)F)c(Br)c2)cc1)c1ccccc1F , IC50 ug/ml HCMV reported as >10 µg/mL

Form field IC50 ug/ml HCMV, entry O=C(CN1CCCC1)Nc1ccc(NC(=S)Nc2ccc(NC(=O)c3ccccc3F)cc2)cc1Cl : >10 µg/mL

The reported value for CCCCN(C)c1cc(NC(=S)Nc2ccc(NC(=O)c3ccccc3F)cc2)cc(C(F)(F)F)c1 in terms of IC50 ug/ml HCMV is >10 µg/mL

The reported value for O=C(CN1CCOCC1)Nc1ccc(NC(=S)Nc2ccc(NC(=O)c3ccccc3F)cc2)cc1Cl in terms of IC50 ug/ml HCMV is >10 µg/mL

Entry CN(C)c1ccc(CNC(=S)Nc2ccc(NC(=O)c3ccccc3F)cc2)cc1C(F)(F)F — recorded IC50 ug/ml HCMV = >0.5 µg/mL

More entries:
get_value(item= COc1cc(OC)c(NC(=S)Nc2ccc(NC(=O)c3cccc(F)c3F)cc2)cc1Cl , readout=IC50 ug/ml HCMV) returns >10 µg/mL

Entry under test: CC1CCCCN1CC(=O)Nc1ccc(NC(=S)Nc2ccc(NC(=O)c3ccccc3F)cc2)cc1Cl (centres unmarked) . Its IC50 ug/ml HCMV was 0.5 µg/mL

Noted for COc1cc(OC)c(NC(=S)Nc2ccc(NC(=O)c3ccccc3N[S+](C)[O-])cc2)cc1Cl (centres unmarked) : its IC50 ug/ml HCMV reads >10 µg/mL
